Hey, just so you know, these numbers are from the supplement of paper PMC12645437.

Target: T1, CRBN, Q96SW2;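 note: pooled lentiviral library of zinc finger degron-EGFP fusions in mCherry-positive Jurkat cells, FACS-sorted after compound exposure, with degron abundance counted by next-generation sequencing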
T1 chain: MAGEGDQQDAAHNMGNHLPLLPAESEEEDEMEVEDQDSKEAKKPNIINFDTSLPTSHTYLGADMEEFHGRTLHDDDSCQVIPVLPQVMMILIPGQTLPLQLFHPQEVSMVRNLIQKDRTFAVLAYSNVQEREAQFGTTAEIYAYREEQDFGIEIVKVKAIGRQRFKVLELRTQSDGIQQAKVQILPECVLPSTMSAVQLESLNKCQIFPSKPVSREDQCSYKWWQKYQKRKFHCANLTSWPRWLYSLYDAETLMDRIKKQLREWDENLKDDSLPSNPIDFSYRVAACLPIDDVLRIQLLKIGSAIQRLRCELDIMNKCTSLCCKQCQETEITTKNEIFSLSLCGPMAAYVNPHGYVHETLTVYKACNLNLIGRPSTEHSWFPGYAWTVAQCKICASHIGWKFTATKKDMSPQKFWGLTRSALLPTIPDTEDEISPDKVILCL
Assay: log2 fold change of degron read counts, EGFP-low vs EGFP+ sorted cells (limma voom), compound-induced degradation; higher = more compound-induced degradation of the degron-EGFP fusion; degrons are variants of IKZF1/3 zinc finger 2; compound dose not given here
Details: Jurkat; 18 h; compound: compound 22 (5-morpholino-thalidomide)
Over roughly 8,300 sequences, “log2 fold change of degron read counts, EGFP-low vs EGFP+ sorted cells (limma voom), compound-induced degradation” has its median near -1.1; the highest 2% begin near 3.2. The entries come from a sample that favours the highest values as a whole.
Listed sequences paired with reported log2 fold change of degron read counts

[[record]]
chainsequence = "FICDVCGADFTQKGNLLRHIKL [46F_47I_49D_50V_52G_53A_54D_55F_67L_, Q9UKT9]"
reportedmeasurement = -2.03

[[record]]
chainsequence = "FRCEICGATFTQKGNLLRHIKL [46F_47R_49E_50I_52G_53A_54T_55F_67L_, Q9UKT9]"
reportedmeasurement = -0.654

[[record]]
chainsequence = "FQCEICGATFTQKGNLLRHIKL [46F_47Q_49E_50I_52G_53A_54T_55F_67L_, Q9UKT9]"
reportedmeasurement = 2.58

[[record]]
chainsequence = "FLCEICGATFTQKGNLLRHIKL [46F_47L_49E_50I_52G_53A_54T_55F_67L_, Q9UKT9]"
reportedmeasurement = -1.41

[[record]]
chainsequence = "FDCEICGATFTQKGNLLRHIKL [46F_47D_49E_50I_52G_53A_54T_55F_67L_, Q9UKT9]"
reportedmeasurement = 0.141

[[record]]
chainsequence = "FSCEICGATFTQKGNLLRHIKL [46F_47S_49E_50I_52G_53A_54T_55F_67L_, Q9UKT9]"
reportedmeasurement = 2.57


Which log2 fold change of degron read counts is listed for FFCEICGATFTQKGNLLRHIKL [46F_47F_49E_50I_52G_53A_54T_55F_67L_, Q9UKT9] ?
3.8
